System: Raw264.7 macrophages
assay_conditions: mouse
Readings of Intracellular macrophage growth Cell toxicity for the listed molecules

Some molecules with known Intracellular macrophage growth Cell toxicity results, for comparison:
molecule: C[C@H]1COc2c(N3CCN(C)CC3)c(F)cc3c(=O)c(C(=O)O)cn1c23
reported: >20 µM
//
molecule: NC(=O)c1cnccn1 [Pyrazinamide]
reported: >150 µM
//
molecule: NCC[C@H](O)C(=O)N[C@@H]1C[C@H](N)[C@@H](O[C@H]2O[C@H](CN)[C@@H](O)[C@H](O)[C@H]2O)[C@H](O)[C@H]1O[C@H]1O[C@H](CO)[C@@H](O)[C@H](N)[C@H]1O
reported: >150 µM
//
molecule: CC[C@@H](CO)NCCN[C@@H](CC)CO
reported: >20 µM

Consider the additional molecule presented here.
[in] Need Intracellular macrophage growth Cell toxicity, item CCc1cc(C(N)=S)ccn1 [Ethionamide]
[out] 120 µM

----------
Test system: Raw264.7 macrophages
assay_conditions: mouse
readout_type: Intracellular macrophage growth Cell toxicity

Some compounds with known Intracellular macrophage growth Cell toxicity results, for comparison:
compound: NNC(=O)c1ccncc1 [Isoniazid]
experimental_system: Raw264.7 macrophages
reported: >150 µM
//
compound: CC(=O)O[C@H]1C[C@@]2(C)[C@@H](C[C@@H](O)[C@H]3[C@@]4(C)CC[C@@H](O)[C@@H](C)[C@@H]4CC[C@@]32C)/C1=C(\CCC=C(C)C)C(=O)O [Fusidic Acid]
experimental_system: Raw264.7 macrophages
reported: >20 µM
//
compound: CO[C@H]1/C=C/O[C@@]2(C)Oc3c(C)c(O)c4c(O)c(c(/C=N/N5CCN(C)CC5)c(O)c4c3C2=O)NC(=O)/C(C)=C\C=C\[C@H](C)[C@H](O)[C@@H](C)[C@@H](O)[C@@H](C)[C@H](OC(C)=O)[C@@H]1C [Rifampin]
experimental_system: Raw264.7 macrophages
reported: 24 µM
//
compound: O=[N+]([O-])c1cn2c(n1)OC[C@@H](OCc1ccc(OC(F)(F)F)cc1)C2 [PA-824]
experimental_system: Raw264.7 macrophages
reported: >20 µM

[in] Need Intracellular macrophage growth Cell toxicity, item CO[C@H]1/C=C/O[C@@]2(C)Oc3c(C)c(O)c4c(c3C2=O)C2=NC3(CCN(CC(C)C)CC3)NC2=C(NC(=O)/C(C)=C\C=C\[C@H](C)[C@H](O)[C@@H](C)[C@@H](O)[C@@H](C)[C@H](OC(C)=O)[C@@H]1C)C4=O [Rifabutin]
[out] >20 µM

[in] What would you report for [H]/N=C(/N)N[C@H]1[C@H](O)[C@@H](O)[C@H](O[C@@H]2O[C@@H](C)[C@](O)(C=O)[C@H]2O[C@@H]2O[C@@H](CO)[C@H](O)[C@@H](O)[C@@H]2NC)[C@@H](N/C(N)=N\[H])[C@@H]1O [Streptomycin] ?
[out] >35 µM

----------
Readings of MIC for the listed compounds
Tested on: M. tuberculosis H37Rv-GFP in Raw264.7 macrophages
test_name: microbe, parasite or virus in culture
Assay type: cell-based, Mycobacterium tuberculosis
assay_conditions: Mycobacterium tuberculosis, H37RV, read-out: MIC Intracellular
Report as a plain number; the unit µM is understood.

compound: COc1ccc(O[C@H]2CCCN(C(=O)c3cc([N+](=O)[O-])cc([N+](=O)[O-])c3)C2)cc1 [Compound 12-(S)]
units: µM
MIC: 20

[in] Need MIC, item `O=C(NCCOCc1ccccc1)c1cc([N+](=O)[O-])cc([N+](=O)[O-])c1`
[out] 0.2

[in] What would you report for `COc1ccc(OCCNC(=O)c2cc([N+](=O)[O-])cc([N+](=O)[O-])c2)cc1` ?
[out] 0.2

[in] What would you report for `O=C(NCCOc1ccccc1F)c1cc([N+](=O)[O-])cc([N+](=O)[O-])c1` ?
[out] 0.7

[in] What would you report for `O=C(NCCOCc1ccccc1F)c1cc([N+](=O)[O-])cc([N+](=O)[O-])c1` ?
[out] 0.2

[in] What would you report for `O=C(NCCOCc1cccc(Cl)c1)c1cc([N+](=O)[O-])cc([N+](=O)[O-])c1` ?
[out] 1

[in] What would you report for COc1ccc(O[C@H]2CCN(C(=O)c3cc([N+](=O)[O-])cc([N+](=O)[O-])c3)C2)cc1 [Compound 10-(S)] ?
[out] 20

[in] What would you report for `O=C(NCCOCc1cccc(C(F)(F)F)c1)c1cc([N+](=O)[O-])cc([N+](=O)[O-])c1` ?
[out] 0.2
